- system.under.test: Neutrophil elastase (Homo sapiens, UniProt P08246)
- Sequence (P08246 whole entry): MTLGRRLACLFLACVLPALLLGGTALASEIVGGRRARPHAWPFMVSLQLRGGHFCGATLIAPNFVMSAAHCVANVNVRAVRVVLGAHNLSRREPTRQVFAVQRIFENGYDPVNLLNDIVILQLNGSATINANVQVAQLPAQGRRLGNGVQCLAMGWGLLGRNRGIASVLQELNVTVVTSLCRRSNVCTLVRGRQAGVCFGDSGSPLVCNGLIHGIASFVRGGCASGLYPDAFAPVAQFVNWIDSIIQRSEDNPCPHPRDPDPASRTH
- assay.explanation: Enzyme Assay
- particulars: 25 °C
- Description: The enzyme were assayed spectrophotometrically at 410nm with p-nitroanilide substrates at 25 C.
Labelling field: enter class 1 if recorded Ki is less than 200 µM. Enter class 0 if it equals or exceeds that cut-off.

smiles_data=CCCCc1nn(C)c2c1NOC(=O)N2 label_value="class 1"
smiles_data=Cc1nn(-c2cccc([N+](=O)[O-])c2)c2c1NOC(=O)N2 label_value="class 0"
smiles_data=Cc1nn(-c2ccccc2)c2c1NOC(=O)N2 label_value="class 1"
smiles_data=Cc1nn(-c2ccc(Cl)cc2)c2c1NOC(=O)N2 label_value="class 1"
smiles_data=Cc1nn(C)c2c1NOC(=O)N2 label_value="class 0"

Lab note: next molecule to report on.
Take the molecule Cc1nn(-c2ccccc2[N+](=O)[O-])c2c1NOC(=O)N2 and say whether its Ki is less than 200 µM.
class 0
